target: ATM (Homo sapiens, UniProt Q13315); construct: detecting phosphorylation of Chk2 in a human non-small cell lung cancer cell line NCI-H460 (ATCC company); host or cells: NCI-H460 human non-small cell lung cancer cells; experiment: ATM inhibition test (phosphorylation of Chk2 generated by ionizing radiation, AlphaScreen SureFire); format: cell-based; conditions: ATM inhibitory activity, phosphorylated Chk2 in NCI-H460 cells, ionizing radiation 8Gy, 1 hour after test compound treatment
Sequence (Q13315 whole entry): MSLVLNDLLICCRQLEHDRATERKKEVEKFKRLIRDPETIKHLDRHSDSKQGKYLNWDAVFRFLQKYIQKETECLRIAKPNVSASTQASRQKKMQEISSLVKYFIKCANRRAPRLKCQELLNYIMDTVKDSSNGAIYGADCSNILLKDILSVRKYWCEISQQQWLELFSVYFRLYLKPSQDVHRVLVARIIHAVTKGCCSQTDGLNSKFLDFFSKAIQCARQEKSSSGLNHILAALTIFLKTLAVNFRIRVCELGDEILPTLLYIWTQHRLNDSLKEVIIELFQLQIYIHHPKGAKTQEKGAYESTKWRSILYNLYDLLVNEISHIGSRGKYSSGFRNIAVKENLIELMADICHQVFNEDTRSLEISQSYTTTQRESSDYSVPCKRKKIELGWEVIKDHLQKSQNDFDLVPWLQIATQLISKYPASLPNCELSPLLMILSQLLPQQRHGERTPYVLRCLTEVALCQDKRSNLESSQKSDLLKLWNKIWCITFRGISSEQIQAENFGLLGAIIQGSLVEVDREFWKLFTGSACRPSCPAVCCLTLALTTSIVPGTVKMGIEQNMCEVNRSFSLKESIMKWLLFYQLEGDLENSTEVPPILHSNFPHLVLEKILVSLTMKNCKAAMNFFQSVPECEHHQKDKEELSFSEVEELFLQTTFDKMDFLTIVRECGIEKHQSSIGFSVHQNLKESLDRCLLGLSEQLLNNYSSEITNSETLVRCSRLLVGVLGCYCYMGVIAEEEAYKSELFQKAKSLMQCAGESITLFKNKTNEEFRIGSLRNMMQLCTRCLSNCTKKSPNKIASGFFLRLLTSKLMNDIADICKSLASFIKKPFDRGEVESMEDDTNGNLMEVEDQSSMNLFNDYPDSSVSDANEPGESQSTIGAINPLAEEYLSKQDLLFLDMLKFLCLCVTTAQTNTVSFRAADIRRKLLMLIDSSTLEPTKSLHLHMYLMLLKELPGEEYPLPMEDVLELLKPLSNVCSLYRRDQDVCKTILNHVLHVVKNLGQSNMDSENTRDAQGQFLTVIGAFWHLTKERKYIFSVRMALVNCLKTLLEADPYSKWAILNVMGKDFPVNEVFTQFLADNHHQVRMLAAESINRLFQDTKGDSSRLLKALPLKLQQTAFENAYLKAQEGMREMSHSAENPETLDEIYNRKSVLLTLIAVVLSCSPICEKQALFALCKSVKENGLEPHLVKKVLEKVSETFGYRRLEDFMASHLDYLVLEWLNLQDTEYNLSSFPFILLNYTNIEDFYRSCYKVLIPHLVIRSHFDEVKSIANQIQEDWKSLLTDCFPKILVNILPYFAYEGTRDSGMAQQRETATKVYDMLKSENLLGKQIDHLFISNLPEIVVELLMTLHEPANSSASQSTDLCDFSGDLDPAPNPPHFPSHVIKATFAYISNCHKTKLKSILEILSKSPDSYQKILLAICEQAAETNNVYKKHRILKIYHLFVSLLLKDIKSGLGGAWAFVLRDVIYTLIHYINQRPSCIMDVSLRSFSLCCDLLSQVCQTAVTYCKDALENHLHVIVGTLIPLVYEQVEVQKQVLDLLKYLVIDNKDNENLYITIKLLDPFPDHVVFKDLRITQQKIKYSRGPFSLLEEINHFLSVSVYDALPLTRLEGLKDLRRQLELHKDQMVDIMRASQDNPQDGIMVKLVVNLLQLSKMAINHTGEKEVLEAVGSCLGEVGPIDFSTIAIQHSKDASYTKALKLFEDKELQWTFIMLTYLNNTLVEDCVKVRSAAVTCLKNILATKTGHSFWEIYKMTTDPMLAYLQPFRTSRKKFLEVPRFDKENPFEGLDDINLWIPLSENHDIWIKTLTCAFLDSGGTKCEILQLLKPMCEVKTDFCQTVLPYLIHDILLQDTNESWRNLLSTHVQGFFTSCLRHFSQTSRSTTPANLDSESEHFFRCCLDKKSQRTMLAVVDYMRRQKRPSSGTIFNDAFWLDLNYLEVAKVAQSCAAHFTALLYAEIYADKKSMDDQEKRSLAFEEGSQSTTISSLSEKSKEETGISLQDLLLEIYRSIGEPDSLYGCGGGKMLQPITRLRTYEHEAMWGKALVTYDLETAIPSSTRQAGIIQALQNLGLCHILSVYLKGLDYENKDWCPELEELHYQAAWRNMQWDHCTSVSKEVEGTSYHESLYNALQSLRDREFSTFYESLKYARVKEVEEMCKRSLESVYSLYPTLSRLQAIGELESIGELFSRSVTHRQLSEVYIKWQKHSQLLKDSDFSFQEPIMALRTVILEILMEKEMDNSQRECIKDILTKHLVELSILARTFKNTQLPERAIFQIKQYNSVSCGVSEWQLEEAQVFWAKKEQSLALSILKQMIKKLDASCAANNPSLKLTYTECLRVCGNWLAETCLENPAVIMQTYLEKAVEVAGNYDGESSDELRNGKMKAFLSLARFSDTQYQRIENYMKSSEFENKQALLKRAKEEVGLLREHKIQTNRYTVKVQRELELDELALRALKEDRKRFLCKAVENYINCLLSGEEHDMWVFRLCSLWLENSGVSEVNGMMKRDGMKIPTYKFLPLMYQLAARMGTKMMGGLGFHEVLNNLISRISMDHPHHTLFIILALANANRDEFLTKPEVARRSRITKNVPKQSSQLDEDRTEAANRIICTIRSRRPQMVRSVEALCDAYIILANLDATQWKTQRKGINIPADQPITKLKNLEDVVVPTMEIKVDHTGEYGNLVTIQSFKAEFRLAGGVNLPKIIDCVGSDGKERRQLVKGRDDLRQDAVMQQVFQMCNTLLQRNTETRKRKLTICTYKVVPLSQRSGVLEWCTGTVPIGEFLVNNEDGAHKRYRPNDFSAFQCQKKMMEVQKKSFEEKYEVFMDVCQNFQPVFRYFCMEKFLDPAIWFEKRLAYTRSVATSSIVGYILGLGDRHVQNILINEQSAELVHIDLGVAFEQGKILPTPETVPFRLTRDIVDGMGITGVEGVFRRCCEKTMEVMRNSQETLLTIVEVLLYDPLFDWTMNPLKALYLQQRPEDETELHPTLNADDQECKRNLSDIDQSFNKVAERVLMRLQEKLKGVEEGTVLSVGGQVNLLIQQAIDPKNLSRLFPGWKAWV
pIC50: −log10 of the molar value.
measure-name: pIC50

Exam item: // query pIC50 value for entry O=c1cc(N2CCOCC2)cc(-c2cccc3c2Sc2ccc(NCc4cccc(N5CCOCC5)n4)cc2S3)[nH]1 [Example 1-12-32]
Marked response: 6.30 to 7.00

Exam item: Follow-up item: O=c1cc(N2CCOCC2)cc(-c2cccc3c2Sc2ccc(N4CC4CN4CCOCC4)cc2S3)[nH]1 (stereo not drawn) [Example 1-38]
Marked response: 6.30 to 7.00

Exam item: Follow-up item: O=c1cc(N2CCOCC2)cc(-c2cccc3c2Sc2ccc(N4CC4CF)cc2S3)[nH]1 (stereo not drawn) [Example 1-40]
Marked response: 6.30 to 7.00

* * *

target: ATM (Homo sapiens, UniProt Q13315); construct: detecting phosphorylation of Chk2 in a human non-small cell lung cancer cell line NCI-H460 (ATCC company); host or cells: NCI-H460 human non-small cell lung cancer cells; test: ATM inhibition test (phosphorylation of Chk2 generated by ionizing radiation, AlphaScreen SureFire); format: cell-based; details: phosphorylated Chk2 in NCI-H460 cells, ionizing radiation 8Gy, 1 hour after test compound treatment; read-out: ATM inhibitory activity
measure-name: IC50

Some compounds with known IC50 results, for comparison:
compound | measured-on | IC50
O=c1cc(N2CCOCC2)cc(-c2cccc3c2Sc2ccc(NCc4cscn4)cc2S3)[nH]1 | ATM (Homo sapiens, UniProt Q13315) | 100 to 500 nM
Cc1ccc(CNc2ccc3c(c2)Sc2cccc(-c4cc(N5CCOCC5)cc(=O)[nH]4)c2S3)s1 | ATM (Homo sapiens, UniProt Q13315) | 100 to 500 nM
Cc1ccc(CN2CCC(Nc3ccc4c(c3)Cc3cccc(-c5cc(N6CCOCC6)cc(=O)[nH]5)c3O4)CC2)nc1 | ATM (Homo sapiens, UniProt Q13315) | 100 to 500 nM
Cc1csc(CNc2ccc3c(c2)Cc2cccc(-c4cc(N5CCOCC5)cc(=O)[nH]4)c2O3)n1 | ATM (Homo sapiens, UniProt Q13315) | 100 to 500 nM
O=c1cc(N2CCOCC2)cc(-c2cccc3c2Oc2ccc(NCc4ccnc(F)c4)cc2C3)[nH]1 | ATM (Homo sapiens, UniProt Q13315) | < 100 nM
CC(Nc1ccc2c(c1)Cc1cccc(-c3cc(N4CCOCC4)cc(=O)[nH]3)c1O2)c1cc(CF)ncn1 (centres unmarked) | ATM (Homo sapiens, UniProt Q13315) | 100 to 500 nM
CN(C)c1cnc(CNc2ccc3c(c2)Cc2cccc(-c4cc(N5CCOCC5)cc(=O)[nH]4)c2O3)cn1 | ATM (Homo sapiens, UniProt Q13315) | < 100 nM
CC(Nc1ccc2c(c1)Cc1cccc(-c3cc(N4CCOCC4)cc(=O)[nH]3)c1O2)c1nccc(CF)n1 (single isomer, unassigned) [Example 2-14-94-1] | ATM (Homo sapiens, UniProt Q13315) | < 100 nM

Exam item: What measured IC50 is associated with `O=c1cc(N2CCOCC2)cc(-c2cccc3c2Sc2ccc(NCc4cccc(Cl)n4)cc2S3)[nH]1` on ATM (Homo sapiens, UniProt Q13315)?
Marked response: < 100 nM

Exam item: Follow-up item: `CNc1ccc2c(c1)Cc1cccc(-c3cc(N4CCOCC4)cc(=O)[nH]3)c1S2`
Marked response: 500 to 2000 nM

Exam item: Follow-up item: `N#Cc1ccc(CNc2ccc3c(c2)Cc2ccnc(-c4cc(N5CCOCC5)cc(=O)[nH]4)c2O3)s1`
Marked response: 100 to 500 nM

Exam item: Follow-up item: `O=c1cc(N2CCOCC2)cc(-c2ccc(F)c3c2Oc2ccc(NCc4cncc(Cl)c4)cc2C3)[nH]1`
Marked response: 100 to 500 nM

Exam item: Follow-up item: CC(CN1C2CCC1COC2)Nc1ccc2c(c1)Sc1cccc(-c3cc(N4CCOCC4)cc(=O)[nH]3)c1S2 (centres unmarked)
Marked response: 100 to 500 nM

Exam item: Follow-up item: Cc1nccc(C(C)Nc2ccc3c(c2)Sc2cccc(-c4cc(N5CCOCC5)cc(=O)[nH]4)c2S3)n1 (centres unmarked) [Example 1-12-80]
Marked response: 100 to 500 nM

* * *

In this section, each of the molecules is paired with its reported IC50.
Biological target: ATM (Homo sapiens, UniProt Q13315)
Construct: detecting phosphorylation of Chk2 in a human non-small cell lung cancer cell line NCI-H460 (ATCC company); host or cells: NCI-H460 human non-small cell lung cancer cells
Assay: ATM inhibition test (phosphorylation of Chk2 generated by ionizing radiation, AlphaScreen SureFire)
Type: cell-based
Settings: phosphorylated Chk2 in NCI-H460 cells, ionizing radiation 8Gy, 1 hour after test compound treatment; read-out: ATM inhibitory activity
Protocol: ATM inhibitory effects of a test compound were measured by detecting phosphorylation of Chk2 in a human non-small cell lung cancer cell line NCI-H460 (ATCC company). The level of phosphorylated Chk2 generated by an ionizing radiation was measured using AlphaScreen SureFire (TGR Biosciences). The cells were seeded by 40000 cells per well in 96-well CellBIND® plates (Corning International Inc.), and incubated at 37° C. overnight in 5% CO2. […]

Some molecules with known IC50 results, for comparison:
molecule | endpoint-value
O=c1cc(N2CCOCC2)cc(-c2cccc3c2Sc2ccc(NCCc4cccnc4)cc2S3)[nH]1 | 100 to 500 nM
CCC(Nc1ccc2c(c1)Cc1cccc(-c3cc(N4CCOCC4)cc(=O)[nH]3)c1O2)c1cncc(OC)c1 (single isomer, unassigned) [Example 2-37] | 100 to 500 nM
Cc1ccc(C(Nc2ccc3c(c2)Sc2cccc(-c4cc(N5CCOCC5)cc(=O)[nH]4)c2S3)C2CCN(CC(F)F)CC2)nc1 (stereo not shown) | < 100 nM
COc1ccc(CNc2ccc3c(c2)Cc2cccc(-c4cc(N5CCOCC5)cc(=O)[nH]4)c2S3)cn1 | < 100 nM
CN(C)c1cncc(CNc2ccc3c(c2)Cc2cccc(-c4cc(N5CCOCC5)cc(=O)[nH]4)c2O3)c1 | < 100 nM
Cc1cc(C(C)Nc2ccc3c(c2)Cc2cccc(-c4cc(N5CCOCC5)cc(=O)[nH]4)c2O3)ccn1 (stereo not shown) | 100 to 500 nM
O=c1cc(N2CCOCC2)cc(-c2cccc3c2Oc2ccc(NC4CCN(CCc5ccccc5)C4)cc2C3)[nH]1 (stereo not shown) | 100 to 500 nM
O=c1cc(N2CCOCC2)cc(-c2cccc3c2Sc2ccc(NCCN4CCC(F)(F)C4)cc2S3)[nH]1 | 100 to 500 nM
O=c1cc(N2CCOCC2)cc(-c2cccc3c2Oc2ccc(NC4CCCN(CCc5ccccc5)CC4)cc2C3)[nH]1 (stereo not shown) | 100 to 500 nM
COC[C@H](CN1CCOCC1)Nc1ccc2c(c1)Sc1cccc(-c3cc(N4CCOCC4)cc(=O)[nH]3)c1O2 | 100 to 500 nM

Exam item: // query IC50 value for entry `O=c1cc(N2CCOCC2)cc(-c2cccc3c2Sc2ccc(OCCN4CCOCC4)cc2S3)[nH]1`
Marked response: 100 to 500 nM

Exam item: Follow-up item: `Cc1cnc(CNc2ccc3c(c2)Sc2cccc(-c4cc(N5CCOCC5)cc(=O)[nH]4)c2S3)cn1`
Marked response: < 100 nM

* * *

In this section, each of the compounds is paired with its reported IC50.
Target: ATM (Homo sapiens, UniProt Q13315)
Construct: detecting phosphorylation of Chk2 in a human non-small cell lung cancer cell line NCI-H460 (ATCC company); host or cells: NCI-H460 human non-small cell lung cancer cells
Assay: ATM inhibition test (phosphorylation of Chk2 generated by ionizing radiation, AlphaScreen SureFire)
Type: cell-based
Conditions: phosphorylated Chk2 in NCI-H460 cells, ionizing radiation 8Gy, 1 hour after test compound treatment; read-out: ATM inhibitory activity
Description: ATM inhibitory effects of a test compound were measured by detecting phosphorylation of Chk2 in a human non-small cell lung cancer cell line NCI-H460 (ATCC company). The level of phosphorylated Chk2 generated by an ionizing radiation was measured using AlphaScreen SureFire (TGR Biosciences). The cells were seeded by 40000 cells per well in 96-well CellBIND® plates (Corning International Inc.), and incubated at 37° C. overnight in 5% CO2. […]

Some compounds with known IC50 results, for comparison:
compound | measured-on | IC50
Nc1cccc2c1Sc1cccc(-c3cc(N4CCOCC4)cc(=O)[nH]3)c1O2 | ATM (Homo sapiens, UniProt Q13315) | 100 to 500 nM
CCC(Nc1ccc2c(c1)Sc1cccc(-c3cc(N4CCOCC4)cc(=O)[nH]3)c1S2)[C@@H](N)CC (some centres unmarked) | ATM (Homo sapiens, UniProt Q13315) | 100 to 500 nM
O=c1cc(N2CCOCC2)cc(-c2cccc3c2Oc2ccc(NCc4ccc(-n5cccn5)nc4)cc2C3)[nH]1 | ATM (Homo sapiens, UniProt Q13315) | 100 to 500 nM
CC(CN(C)C1CCCCC1)Nc1ccc2c(c1)Sc1cccc(-c3cc(N4CCOCC4)cc(=O)[nH]3)c1S2 (centres unmarked) | ATM (Homo sapiens, UniProt Q13315) | 100 to 500 nM
Cc1ccc(C(Nc2ccc3c(c2)Sc2cccc(-c4cc(N5CCOCC5)cc(=O)[nH]4)c2S3)[C@H]2CN(C)CCO2)nc1 (single isomer, unassigned) [Example 1-56-13] | ATM (Homo sapiens, UniProt Q13315) | < 100 nM

Now examine the next entry.
Exam item: // query IC50 value for entry `CC(=O)Nc1cncc(CNc2ccc3c(c2)Cc2cccc(-c4cc(N5CCOCC5)cc(=O)[nH]4)c2O3)c1`
Marked response: 500 to 2000 nM
